Tested on: SNB-75
Assay: NCI tumour cell line growth inhibition, 48 h
Calls of active or inactive are those of the source. Cut-off read from the data, not from the text of the source: active = GI50 up to about 1.1 µM and inactive = higher.
The reply should name one outcome from True (active), False (inactive)

Sample answers from the record:
Would you mind telling me which call this test gave "COc1cc(/C=C2\N=C(c3ccccc3)N(c3nc4ccccc4s3)C2=O)cc(OC)c1OC" ?
False

Would you mind telling me which call this test gave COC1O[C@@H]2CCN3C(=O)[C@@H](OC(=O)c4ccc([N+](=O)[O-])cc4)[C@H]1C23 (stereo not given in full) ?
False

Would you mind telling me which call this test gave "COc1ccc(/C=N/N=C(\N)NO)cc1OC" ?
False

Would you mind telling me which call this test gave CCc1nc(N)nc(N)c1-c1ccc(Cl)cc1 [PYRIMETHAMINE] ?
False

Would you mind telling me which call this test gave "CC1(C)CC(=O)C(CC2C(=O)CCCC2=O)C(=O)C1" ?
False

Would you mind telling me which call this test gave "CC(C)Oc1cc2c(cc1O)CC[C@@H]1[C@@H]2CC[C@]2(C)[C@@H](O)CC[C@@H]12" ?
False

Would you mind telling me which call this test gave "Cc1cc(N(CCC#N)CCC#N)ccc1C(=N/NC(=O)c1cc(Cl)ccc1O)/N=N/c1cccc(Cl)c1" ?
False

Would you mind telling me which call this test gave COC(=O)C1SC(SC)=NC12c1ccccc1Nc1ccccc12 (stereo not given) ?
False

Then there is this compound:
Would you mind telling me which call this test gave O=C1CCCC1C(=O)Nc1ccc2ccccc2c1 (stereo not given) ?
False

----------
System: M14
Assay: NCI tumour cell line growth inhibition, 48 h
The source made the active and inactive calls. Cut-off read from the data, not from the text of the source: active = GI50 up to about 1.1 µM and inactive = higher.
The reply should name one outcome from class 1 (active), class 0 (inactive)

Sample answers from the record:
Would you mind telling me which call this test gave "O=C1CNc2cc(N3CCN(c4ccccc4)CC3)ccc2N1" ?
class 0

Would you mind telling me which call this test gave COC1C(C)OC(OC2CC(C)(O)Cc3cc4c(c(O)c32)C(=O)c2c(O)cc3c(c2C4=O)OC2OC3(C)C(O)C(N(C)C)C2O)C(OC)C1(C)OC (stereo unspecified) ?
class 1

Would you mind telling me which call this test gave COC(=O)C1=COC2OC3CC1C2C(C)O3 (stereo unspecified) ?
class 0

Would you mind telling me which call this test gave "Cc1ccc(S(=O)(=O)NC(=O)C2(Br)S(=O)(=O)OCCOS2(=O)=O)cc1" ?
class 0

Would you mind telling me which call this test gave CC1(C)OCC(C(O)C2OC(C)(C)OC2C=O)O1 (stereo unspecified) ?
class 0

Would you mind telling me which call this test gave CC(=O)CC1(C)OC(N)=C(C#N)C1(C#N)C#N (stereo unspecified) ?
class 0

***
Would you mind telling me which call this test gave COC1CC(OC2C(C)OC(OC3C(C)OC(OC4C(C)OC(O[C@H]5CC[C@@]6(C)C(=CC[C@]7(O)[C@@H]6C[C@@H](OC(C)=O)[C@@]6(C)[C@]7(O)CC[C@@]6(O)C(C)=O)C5)CC4OC)CC3OC)CC2OC)OC(C)C1O (stereo partly specified) ?
class 0

Would you mind telling me which call this test gave "O=C(CSc1nnc(-c2ccc(/N=C\c3ccc(Cl)cc3)cc2)o1)Nc1ccccc1" ?
class 0

Would you mind telling me which call this test gave "C/C=C/c1cc2c(cc1O)CC[C@@H]1[C@@H]2CC[C@]2(C)[C@@H](O)CC[C@@H]12" ?
class 1

Would you mind telling me which call this test gave "Cc1ccc(NC(=O)CC(=O)n2nc(-c3ccccc3)c(/N=N\c3ccccc3[N+](=O)[O-])c2-c2ccccc2)cc1" ?
class 0

Would you mind telling me which call this test gave "COC(=O)/C=C/c1cc(OC)c2oc(-c3ccc(OC)c(OC)c3)c(C(=O)OC)c2c1" ?
class 0
